Data provenance: patent US20210330611A1

The entries below are paired with their reported Fibrin % cell toxicity.
System: primary rat microglia
Assay remarks: Cell toxicity (dead cells, size <150 μm2) in coated fibrin (cFib) assay;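 also: share of dead cells sized under 150 µm2 at 10 µM in fibrin-stimulated microglia HTS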
Condition context: primary microglia HTS, 10 μM, fibrin assay, cell size <150 μm^2 as marker of toxicity
// note: answer is a bare numeric in %

Previously resolved entries follow.
Identify measured Fibrin % cell toxicity corresponding to NS(=O)(=O)c1cc2c(cc1Cl)NC(C(Cl)Cl)NS2(=O)=O (centres unmarked) [Trichlormethiazide]
1

Identify measured Fibrin % cell toxicity corresponding to C=CCC1(C(C)CCC)C(=O)N=C(S)NC1=O (centres unmarked)
0

Identify measured Fibrin % cell toxicity corresponding to CC[C@]12CCCN3CCc4c(n(c5ccccc45)[C@@](O)(C(=O)OC)C1)[C@@H]32
0

Would you kindly look at the next entry?
Identify measured Fibrin % cell toxicity corresponding to CCCCC(=O)N(Cc1ccc(-c2ccccc2-c2nnn[nH]2)cc1)[C@H](C(=O)O)C(C)C
0

---

System: LPS-induced microglia activation
Assay remarks: Image-based assay of LPS-induced microglia activation (HTS and dose response)
Format: cell-based, rat
Condition context: Rattus norvegicus, Microglia, 48 h, primary microglia HTS, LPS stimulation, activation = cell size >800 μm2; read-out: LPS % inhibition
Readout type: inhibition at 10 µM (%)
// note: answer is a bare numeric in %

Previously resolved entries follow.
Identify measured inhibition at 10 µM corresponding to O=NN(CCCl)C(=O)NC1CCCCC1
19

Identify measured inhibition at 10 µM corresponding to CCC1=C(C)CN(C(=O)NCCc2ccc(S(=O)(=O)NC(=O)N[C@H]3CC[C@H](C)CC3)cc2)C1=O [Glimepiride]
21

Identify measured inhibition at 10 µM corresponding to CC(C(=O)O)c1ccc(-c2ccccc2)c(F)c1 (stereo not drawn)
33

Identify measured inhibition at 10 µM corresponding to CCCCC(CC)CN1CN(CC(CC)CCCC)CC(C)(N)C1 (stereo not drawn)
19

Identify measured inhibition at 10 µM corresponding to C=C(C)[C@H]1CN[C@H](C(=O)O)[C@H]1CC(=O)O
14

***
Identify measured inhibition at 10 µM corresponding to N#Cc1ccc(C(c2ccc(C#N)cc2)n2cncn2)cc1
16

Identify measured inhibition at 10 µM corresponding to CCCCN1CCCC[C@H]1C(=O)Nc1c(C)cccc1C
-10

Identify measured inhibition at 10 µM corresponding to C[N+]1(C)[C@@H]2CC[C@H]1C[C@@H](OC(=O)C(O)c1ccccc1)C2 (stereo partly drawn) [Homatropine Methylbromide]
12

Identify measured inhibition at 10 µM corresponding to Nc1nnc(-c2cccc(Cl)c2Cl)c(N)n1
12

---

Tested on: LPS-induced microglia activation
Assay remarks: Image-based assay of LPS-induced microglia activation (HTS and dose response)
Type: cell-based, rat
Condition context: Table 1; dose response 0.001-20 μM, triplicates, primary rat microglia, 48 h; read-out: LPS IC50
Readout type: pIC50
Interpret pIC50 as the negative base-10 log of the concentration measured in mol/L.

Report pIC50 from LPS-induced microglia activation testing of CCC(=O)OCC(=O)[C@@]1(OC(=O)CC)[C@H](C)C[C@H]2[C@H]3[C@H]([C@@H](O)C[C@@]21C)[C@@]1(C)C=CC(=O)C=C1C[C@H]3Cl [Alclometazone dipropionate, reference compound]
5.70

***
Report pIC50 from LPS-induced microglia activation testing of CCCOc1ccc2[nH]c(NC(=O)OC)nc2c1 [Oxybendazole, reference compound]
4.92

Report pIC50 from LPS-induced microglia activation testing of CCCCCCc1ccc(O)cc1O.Nc1c2ccccc2nc2ccccc12 [Acrisorcin, reference compound]
5.30

Report pIC50 from LPS-induced microglia activation testing of COc1cc2c(cc1O)CC[C@@H]1[C@@H]2CC[C@]2(C)[C@@H](O)CC[C@@H]12 [2-methoxyestradiol, reference compound]
5.30
